meta.source: PubChem BioAssay

Experimental Details: inhibitors of E-selectin induction by TNFa, primary screen, imaging, HUVEC, immunofluorescence, MLSMR starter and 10KST1 sets (AID 487);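 also: signal is fraction of cell area covered by stained E-selectin grains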
Condition Info: HUVEC TNFalpha-induced E-selectin immunofluorescence imaging, at 2 µM; stronger effect = higher value
Measurement Name: inhibition (%)
Only the number, expressed in %, is required.

Examples with their reported inhibition follow.
COc1ccc(Cn2nnnc2C(c2cccnc2)N2CCN(c3ccc(O)cc3)CC2)cc1 (stereo not given) = -51.9
CCOC(=O)C1=C(N)n2c(s/c(=C\c3cccnc3)c2=O)=C(C(=O)OC)C1c1cccnc1 (stereo not given) = -129
COc1ccc(CC(=O)Nc2cccc(-c3nnc(-c4ccco4)o3)c2)cc1 = 6.2
CCOc1ccccc1-n1c(SCC(=O)NC(C)CC)nnc1-c1ccoc1C (stereo not given) = -47.9

# next compound below
Enquiry: Would you kindly share the measured inhibition for Cc1cc(C)cc(C(=O)N2CCC(C(N)=O)CC2)c1 ?
Return: -54.3

====

The entries below come with measured inhibition of aggregation values attached.
Experimental Details: inhibitors of mutant huntingtin aggregation, primary screen, imaging, exon1htt(103Q)mCFP cells, high-content imaging (AID 483);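 also: compound exposure lasted 3 days before fixation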
Condition Info: exon1htt(103Q)mCFP cell line, aggregate imaging, at 2 µM; stronger effect = higher value
Only the number, expressed in %, is required.

COCC(=O)N(c1ccc(C(C)C)cc1)C1C=CS(=O)(=O)C1 (stereo not drawn) = 20.8
NC(=O)NC(c1ccccc1)c1ccccc1F (stereo not drawn) = 12.6

# next molecule below
Enquiry: Would you kindly share the measured inhibition of aggregation for COc1ccccc1CNC(=O)N[C@@H](Cc1ccccc1)C(=O)O ?
Return: -15.9

====

Experimental Details: inhibitors of E-selectin induction by TNFa, primary screen, imaging, HUVEC, immunofluorescence, MLSMR starter and 10KST1 sets (AID 487);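 also: signal is fraction of cell area covered by stained E-selectin grains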
Condition Info: HUVEC TNFalpha-induced E-selectin immunofluorescence imaging, at 2 µM; stronger effect = higher value
The entries below come with measured inhibition values attached.
Only the number, expressed in %, is required.

CC(=O)OCC1OC(c2ccccc2)C(OC(C)=O)C(OC(C)=O)C1OC(C)=O (centres undefined) = -26.4
CCOC(=O)c1ccccc1NC(=O)c1cc2sccc2n1C = -20.5
CCOC(=O)CSc1nc(-c2ccc3c(c2)OCO3)ccc1C#N = 5.4

Enquiry: Would you kindly share the measured inhibition for CN(C1CCCCC1)S(=O)(=O)c1ccc(S(=O)(=O)N2CCN(CCC#N)CC2)cc1 ?
Return: -53.2

Enquiry: Would you kindly share the measured inhibition for C=CCNc1nc(N2CCCCC2)c(C#N)c2c1CN(Cc1ccccc1)CC2 ?
Return: -82.3

Enquiry: Would you kindly share the measured inhibition for COCCNc1nc2c(c(=O)n(C)c(=O)n2C)n1Cc1cccc(C(F)(F)F)c1 ?
Return: -94.2

====

Experimental Details: inhibitors of TNFa-induced NFkB p65 translocation, primary screen, imaging, HUVEC, MLSMR starter and 10KST1 sets (AID 438);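 also: compound added about 3h40 before a 20 min TNFalpha stimulation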
Condition Info: HUVEC TNFa-induced p65 nuclear translocation; measured here: nuclei count (cytotoxicity indicator), at 2.08 µM
The entries below come with measured cell count values attached.
Form: value (number only, do not type unit).

Examples with their reported cell count follow.
Cn1c(=O)c2c(nc(NCc3ccco3)n2Cc2ccccc2Cl)n(C)c1=O = 502
Cn1c(=O)[nH]c(=O)c2c1nc(N1CCNCC1)n2CCOc1ccccc1 = 321
CCS(=O)(=O)N1CCCC(C(=O)NCc2cccc(OC)c2)C1 (stereo unspecified) = 722
Cc1ccc2cc(CN(Cc3ccc4c(c3)OCO4)Cc3nnnn3Cc3ccco3)c(=O)[nH]c2c1C = 338
C=CCOc1nc2c(c(=O)n(Cc3ccc(Cl)cc3)c(=O)n2C)n1C = 534

Enquiry: Would you kindly share the measured cell count for CC(=O)Nc1cccc(Oc2nc(C)cc(C)c2C#N)c1 ?
Return: 950

Enquiry: Would you kindly share the measured cell count for O=C1c2ccccc2S(=O)(=O)N1Cc1nnc(-c2ccccc2Br)o1 ?
Return: 536
